Exercise: state measured log10 IC50 for each of the compounds provided.
# System: HepG2
# test details: Cell growth inhibition assay (SRB), HepG2
# Format: cell-based, Human
# measurement setup: HepG2 (liver), 96 hours, read-out: Inhibition of cell growth (IC50, μM) HepG 2
The common logarithm of IC50 in µM is what is listed.

Please give the measured log10 IC50 for this compound: Fc1cc(Cl)ccc1Nc1ncnc2ccc(Br)cc12
-0.12

Please give the measured log10 IC50 for this compound: Cn1cnc2cc3ncnc(NCCc4cccc(F)c4)c3cc21
-0.07

Form field: reported log10 IC50 of Fc1cc(Cl)ccc1Nc1ncnc2ccc(I)cc12
0.06

For CC(C)Nc1ncnc2cc3[nH]cnc3cc12 , what is its reported log10 IC50?
-0.74

Which log10 IC50 value is on record for Fc1cccc(CCNc2ncnc3ccc(I)cc23)c1 ?
-0.52

Value lookup for log10 IC50; key = Ic1ccc2ncnc(NC3CCCCC3)c2c1
0.00

Name the recorded log10 IC50 for c1ccc(CCCCNc2ncnc3cc4[nH]cnc4cc23)cc1 .
0.39

What value of log10 IC50 has been recorded for this entry: Ic1ccc2ncnc(NCCCCc3ccccc3)c2c1
0.18

Item under review: Fc1cccc(CCNc2ncnc3ccccc23)c1 . Reported log10 IC50?
0.07

// lookup log10 IC50 for Cc1cc(C)c(Nc2ncnc3ccc([N+](=O)[O-])cc23)c(C)c1
0.38

Entry FC(F)(F)c1ccccc1CNc1ncnc2ccc(I)cc12 : reported log10 IC50 = ?
0.18

Any idea what its log10 IC50 is? The compound is Fc1cccc(CCNc2ncnc3ccc(Br)cc23)c1
-0.05

# query: log10 IC50 of entry FC(F)(F)c1ccccc1CNc1ncnc2ccc(Br)cc12
0.35

Data request, read-out log10 IC50, for Brc1ccc2ncnc(NCCCCc3ccccc3)c2c1
-0.05

Requested read-out: log10 IC50. Entry: Cn1cnc2cc3ncnc(NCc4cccc(F)c4)c3cc21
0.11

Item under review: Cc1cccc2ncnc(NCCc3ccc(F)cc3)c12 . Reported log10 IC50?
-0.04

====

# System: MCF-7
# test details: Cell growth inhibition assay (SRB), MCF-7
# Type: cell-based, Human
# measurement setup: MCF-7 (breast, hormone-dependent), 96 hours
Rule: measured IC50 below 1 µM gets 1 (yes); anything equal to or greater than 1 µM gets 0 (no).

Dear colleague, could you confirm whether IC50 of Brc1ccc2ncnc(NCCCCc3ccccc3)c2c1 falls below 1 µM? Thanks.
1 (yes)

Could you please tell me whether IC50 recorded for FC(F)(F)c1ccccc1CNc1ncnc2ccc(I)cc12 is less than 1 µM?
1 (yes)

Lab log: compare recorded IC50 with 1 µM; is it strictly lower for Cc1cccc2ncnc(NCCc3ccc(F)cc3)c12 ?
0 (no)

Input Fc1cccc(CCNc2ncnc3ccc(I)cc23)c1 ; condition: IC50 strictly below 1 µM. Does it hold?
1 (yes)

Consider the compound Cn1cnc2cc3ncnc(NCCc4cccc(F)c4)c3cc21 . Is its IC50 strictly less than 1 µM?
0 (no)

For this compound, is IC50 lower than 1 µM? c1ccc(CCCCNc2ncnc3cc4[nH]cnc4cc23)cc1
0 (no)

Criterion: IC50 strictly below 1 µM. Is it met by Cn1cnc2cc3ncnc(NCCc4ccccc4F)c3cc21 ?
0 (no)

Could you please tell me whether IC50 recorded for Cn1cnc2cc3ncnc(NCc4cccc(F)c4)c3cc21 is less than 1 µM?
1 (yes)

Take the compound Fc1cccc(CCNc2ncnc3ccc(Br)cc23)c1 and say whether its IC50 is less than 1 µM.
1 (yes)

Hi there! Is IC50 for Fc1cccc(CCNc2ncnc3ccccc23)c1 below 1 µM, do you know?
0 (no)

Threshold test, IC50 < 1 µM: Fc1cc(Cl)ccc1Nc1ncnc2ccc(I)cc12
0 (no)
